Target: T1, Extracellular domain (ECD) of the canine IL-4 receptor alpha-AviTag-His Tag (canine)
T1 construct: expressed in CHO cells; also called canine IL-4RA; canine IL4Ra
T1 chain: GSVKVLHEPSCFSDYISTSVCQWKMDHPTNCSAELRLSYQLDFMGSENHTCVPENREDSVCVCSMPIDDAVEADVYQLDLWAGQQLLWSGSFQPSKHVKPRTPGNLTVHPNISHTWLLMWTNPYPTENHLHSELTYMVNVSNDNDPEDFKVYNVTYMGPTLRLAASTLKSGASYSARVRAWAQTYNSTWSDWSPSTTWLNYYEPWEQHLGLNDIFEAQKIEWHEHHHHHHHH
Test: SPR, IgG captured via anti-dog Fc;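 note: biacore T200 SPR with antibodies captured on CM5 chip bearing anti-dog Fc, 120 s association then 600 s dissociation, double-referenced sensorgrams fitted with 1:1 binding model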
Listed binders paired with reported Kd
property-name: Kd

1. GFmix_PTH-H + GFmix3_KTHS-L (antibody, V domains shown) VH: EVQLVESGGDLVKPGGSLRLSCVASGFPFRDYAMTWVRQAPGKGLQWLSLISGSGGKTYYADAVKGRFTISRDNAKNTLYLQMNSLRAEDTAVYYCAVDRLTKTIRPQYYGLWHWGQGTLVTVSS VL: DIVMTQTPLSLSVSPGETASISCRSSKSLTYSIGYNYLDWYMQKPGQSPQGLIYLGSKRASGVSDRFSGSGSGADFTLKISRVEADDAGVYYCMQGLHSPLSFGQGTKLEIKR :: 0.17 nM
2. GFmix_PTH-H + GFmix_THS-L (antibody, V domains shown) VH: EVQLVESGGDLVKPGGSLRLSCVASGFPFRDYAMTWVRQAPGKGLQWLSLISGSGGKTYYADAVKGRFTISRDNAKNTLYLQMNSLRAEDTAVYYCAVDRLTKTIRPQYYGLWHWGQGTLVTVSS VL: DIVMTQTPLSLSVSPGETASISCRSSQSLTYSIGYNYLDWYMQKPGQSPQGLIYLGSKRASGVSDRFSGSGSGADFTLKISRVEADDAGVYYCMQGLHSPLGFGQGTKLEIKR :: 0.171 nM
